Target: T1, human TSLP recombinant protein (human, UniProt Q969D9 29-159, biotinylated in the blocking and cell-binding assays (sites not given))
T1 construct: also called biotinylated human TSLP protein
Experiment: ELISA on coated human TSLP;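 further: binding detected by TMB colour development for 10 min at 37 °C, then absorbance measured at 450 nm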
MEASURE: EC50 (nM)
Just the number please, in nM, no unit attached.

Illustrative cases are given below, each with its answer.
Ab20 (antibody, V domains shown, Humanized; also called h71G4VHv2/h71G4VKv1) VH: QVQLVQSGAEVKKPGSSVKVSCKASGYTFTDYWMHWVRQAPGQGLEWMGTIDNSDSDTTYNQKFQGRVTLTVDTSTSTAYMELSSLRSEDTAVYYCARSVDGYLDYWGQGTLVTVSS VL: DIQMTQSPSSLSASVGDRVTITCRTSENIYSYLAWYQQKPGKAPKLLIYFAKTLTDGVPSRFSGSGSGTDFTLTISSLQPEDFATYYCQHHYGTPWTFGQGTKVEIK; 0.17
Ab24 (antibody, V domains shown, Humanized; also called h39G5VHv5/h71G4VKv1; h39G5VHv5/h71G4VKv1 hIgG1) VH: QVQLVQSGAEVKKPGSSVKVSCKASGYTFTDYWMHWVRQAPGQGLEWMGIIDPSDSDTSLNQKFQGRVTLTVDTSTSTAYMELSSLRSEDTAVYYCARSLDGYYDYWGQGTLVTVSS VL: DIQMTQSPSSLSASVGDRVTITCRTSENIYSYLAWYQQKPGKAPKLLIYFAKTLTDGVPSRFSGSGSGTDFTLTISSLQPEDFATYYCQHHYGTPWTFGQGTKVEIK; 0.22
Ab5 (antibody, V domains shown, Humanized; also called h39G5VHv5/h39G5VKv1) VH: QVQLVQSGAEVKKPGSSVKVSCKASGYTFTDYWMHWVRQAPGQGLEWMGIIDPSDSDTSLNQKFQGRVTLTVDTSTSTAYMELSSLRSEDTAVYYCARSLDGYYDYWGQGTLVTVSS VL: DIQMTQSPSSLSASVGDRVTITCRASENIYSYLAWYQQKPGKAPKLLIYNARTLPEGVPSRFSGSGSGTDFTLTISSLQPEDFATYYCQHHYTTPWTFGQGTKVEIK; 0.26

input: EC50 for Ab2 (antibody, V domains shown, Humanized; also called h39G5VHv2/h39G5VKv1) VH: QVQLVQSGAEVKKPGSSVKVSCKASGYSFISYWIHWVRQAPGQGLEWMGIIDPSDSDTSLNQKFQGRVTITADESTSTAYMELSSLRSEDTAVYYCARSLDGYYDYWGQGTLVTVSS VL: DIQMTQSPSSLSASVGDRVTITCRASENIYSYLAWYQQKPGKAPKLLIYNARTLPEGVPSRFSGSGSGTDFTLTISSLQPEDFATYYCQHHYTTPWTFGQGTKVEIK ?
output: 0.21

input: EC50 for Ab16 (antibody, V domains shown, Humanized; also called h71G4VHv1/h39G5VKv1) VH: QVQLVQSGAEVKKPGSSVKVSCKASGYTFTDYWMHWVRQAPGQGLEWMGTIDNSDSDTTYNPSFQGHVTISADKSISTAYLQWSSLKASDTAMYYCARSVDGYLDYWGQGTLVTVSS VL: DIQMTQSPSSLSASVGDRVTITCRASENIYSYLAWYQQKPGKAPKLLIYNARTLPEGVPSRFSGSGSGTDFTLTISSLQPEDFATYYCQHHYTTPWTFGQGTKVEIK ?
output: 5.87
